Cited source for all entries: BigSolDB 2.1

# test-parameters: in 1,4-dioxane, 298.2 K
readout-kind: solubility (mole fraction)
Write the value as a bare number.

# get_value(readout='solubility (mole fraction)', item= CC(=O)N1CCN(c2ccc(OC[C@@H]3CO[C@@](Cn4ccnc4)(c4ccc(Cl)cc4Cl)O3)cc2)CC1 (racemic) )
0.00833

----------
# test-parameters: in methanol, 308.2 K
readout-kind: solubility (mole fraction)
No unit in the answer, please; the number alone is enough.

Which solubility (mole fraction) is reported for this compound? `NC(CO)(CO)CO`
0.0124

----------
# test-parameters: in DMSO, 308.15 K
readout-kind: solubility (mole fraction)

What value of measured solubility (mole fraction) is listed for `COc1cc(/C=C/C(=O)O)cc(OC)c1O` ?
0.152

----------
Give measured solubility (mole fraction) for each item. Keep answers brief.
# test-parameters: in acetic acid, 333.2 K

What measured solubility (mole fraction) goes with `O=C1c2ccccc2C(=O)N1O` ?
0.00816

Moving on to the next compound: `O=C(O)c1ccc(C(=O)O)c(C(=O)O)c1`
0.0048

----------
# test-parameters: in n-propanol, 288.15 K
readout-kind: solubility (mole fraction)
Response field accepts a number only; no unit should be typed.

If you can, please state the reported solubility (mole fraction) value of `C/C=C/C=C/C(=O)O` .
0.0283

----------
# test-parameters: in acetic acid, 353.2 K
readout-kind: solubility (mole fraction)
Answer as a number with no unit attached.

Data request, read-out solubility (mole fraction), for `O=C1c2ccccc2C(=O)N1O`
0.0127

// query: `O=C(O)c1ccc(C(=O)O)c(C(=O)O)c1`
0.0087

----------
# test-parameters: in water, 311.95 K
readout-kind: solubility (mole fraction)
Write no unit; give the number alone.

Name the reported solubility (mole fraction) value associated with the molecule `O=C(O)CNCP(=O)(O)O`
0.00174

----------
# test-parameters: in water, 279 K
readout-kind: solubility (mole fraction)
Would you mind answering with just the numeric figure?

Bench note: what solubility (mole fraction) did `C1CN2CN3CCN(CN1C3)C2` show?
0.0946

----------
# test-parameters: in water, 323.15 K
Assign solubility (mole fraction) to each entry below.
Keep it simple and answer with nothing but the number.

Looking for the measured solubility (mole fraction) of O=C1N2CN3C(=O)N4CN5C(=O)N6CN7C(=O)N8CN9C(=O)N%10CN%11C(=O)N%12CN1C1C2N2CN%13C(=O)N(CN%14C(=O)N(CN%15C(=O)N(CN%16C(=O)N(CN%17C(=O)N(CN1C2=O)C%12C%11%17)C%10C9%16)C8C7%15)C6C5%14)C4C3%13 (stereo unspecified) , can you help?
0.00403

Also `C=CC1=C(C(=O)O)N2C(=O)[C@@H](NC(=O)/C(=N\OCC(=O)O)c3csc(N)n3)[C@H]2SC1` ?
4.74e-05

Check `CC(C)C[C@H](CN)CC(=O)O` too.
0.00486

Another molecule: `Cc1nc2n(c(=O)c1CCN1CCC(c3noc4cc(F)ccc34)CC1)CCCC2`
4e-07

How about C[C@@H](O)[C@H]1C(=O)N2C(C(=O)[O-])=C(SC3Cn4cnc[n+]4C3)[C@H](C)[C@H]12 (stereo partly specified) ?
0.000807

Repeat with `NCCC(=O)N[C@@H](Cc1cnc[nH]1)C(=O)O`
0.0324

----------
# test-parameters: in DMSO, 318.15 K
readout-kind: solubility (mole fraction)

Quick one: solubility (mole fraction) of `COc1cc(/C=C/C(=O)O)cc(OC)c1O` ?
0.158
